# assay_target: DRB4*01:01 (Homo sapiens, UniProt P01903+P13762, G164S)
# procedure_summary: biochemical
Where a SMILES comes first, the peptide text is derived from it.
endpoint: IC50 (µM)
Express the result in µM but write the number alone.

stdin: Jot down IC50 (DRB4*01:01 (Homo sapiens, UniProt P01903+P13762, G164S)) of CSCC[C@H](NC(=O)[C@H](CCCCN)NC(=O)[C@H](CO)NC(=O)[C@H](CCC(=O)O)NC(=O)[C@H](CC(C)C)NC(=O)[C@H](CCC(N)=O)NC(=O)[C@H](CC(N)=O)NC(=O)[C@H](CC(C)C)NC(=O)[C@H](CCCNC(=N)N)NC(=O)[C@H](CC(=O)O)NC(=O)[C@H](CC(C)C)NC(=O)[C@H](CC(C)C)NC(=O)[C@H](CC(C)C)NC(=O)[C@@H](N)CC(C)C)C(=O)N[C@@H](CO)C(=O)O [Ncl_45] (H-LLLLDRLNQLESKMS-OH) .
stdout: 1.7

---

# assay_target: DRB1*09:01 (Homo sapiens, UniProt P01903+P01911, A100R/A103E/D57H/D86V/F55Y/F60I/F76Y/I96F/K127E/L162R/M171V/P40D/Q125H/Q99R/R33Q/R42F/S133A/S66N/T210M/V115G/W38K/Y107V/Y59G/Y89S)
# procedure_summary: biochemical
Where a SMILES comes first, the peptide text is derived from it.
What IC50 was measured for each of the following?
Field: numeric (nM). Do not append units.

stdin: Specify IC50 for CC[C@H](C)[C@H](NC(=O)[C@H](Cc1c[nH]cn1)NC(=O)[C@H](CCCCN)NC(=O)[C@H](CC(N)=O)NC(=O)[C@H](CC(C)C)NC(=O)[C@H](CC(C)C)NC(=O)[C@@H](NC(=O)[C@@H](NC(=O)[C@H](CCC(N)=O)NC(=O)[C@H](CC(=O)O)NC(=O)[C@H](CCCCN)NC(=O)[C@@H](N)Cc1ccccc1)C(C)C)[C@@H](C)CC)C(=O)N[C@@H](CC(=O)O)C(=O)N[C@@H](C)C(=O)N[C@@H](Cc1ccc(O)cc1)C(=O)O [Ncl_70] (H-FKDQVILLNKHIDAY-OH) and stop.
stdout: 1560

stdin: For the molecule CC(C)C[C@H](NC(=O)[C@H](Cc1ccc(O)cc1)NC(=O)[C@H](Cc1ccc(O)cc1)NC(=O)[C@H](Cc1ccccc1)NC(=O)[C@H](Cc1ccc(O)cc1)NC(=O)[C@H](Cc1c[nH]c2ccccc12)NC(=O)[C@H](CCCNC(=N)N)NC(=O)[C@@H]1CCCN1)C(=O)NCC(=O)N[C@H](C(=O)NCC(=O)N1CCC[C@H]1C(=O)N[C@@H](CCC(=O)O)C(=O)N[C@@H](C)C(=O)NCC(=O)O)[C@@H](C)O [Ncl_22] (H-PRWYFYYLGTGPEAG-OH) , report IC50.
stdout: 1130

stdin: Please indicate IC50 recorded for CC(C)C[C@H](NC(=O)[C@H](C)NC(=O)[C@@H](NC(=O)[C@H](Cc1ccccc1)NC(=O)[C@H](Cc1c[nH]c2ccccc12)NC(=O)[C@@H](N)CO)[C@@H](C)O)C(=O)N[C@H](C(=O)N[C@@H](CCC(N)=O)C(=O)N[C@@H](Cc1c[nH]cn1)C(=O)NCC(=O)N[C@@H](CCCCN)C(=O)N[C@@H](CCC(=O)O)C(=O)N[C@@H](CC(=O)O)C(=O)N[C@@H](CC(C)C)C(=O)N[C@@H](CCCCN)C(=O)O)[C@@H](C)O [Ncl_11] (H-SWFTALTQHGKEDLK-OH)
stdout: 445
